System: lung cancer cell line NCI-H82
Assay: Cell proliferation assay, NCI-H82 (CELL-TITER GLO)
Format: cell-based
Conditions: Homo sapiens, NCI-H82, 72 h, NCI-H82 cells, 72 h incubation, cell viability by CELL-TITER GLO, top concentration 1 μM; read-out: EC50, Inhibition of NCl-H82 Cell Proliferation
Measurement Name: EC50

Task: Indicate its recorded EC50; the molecule in question is C#Cc1nc(NC(=O)N[C@@H](CO)c2ccc(N3CCCCC3)cn2)cs1
Result: ≤ 200 nM

Task: Indicate its recorded EC50; the molecule in question is C#Cc1nc(NC(=O)NCc2ccc(N3CCCC3C(N)=O)cc2)cs1 (stereo not shown)
Result: 200 to 1000 nM

Task: Indicate its recorded EC50; the molecule in question is C#Cc1nc(NC(=O)N[C@H](C)c2ccc(-c3cccc4ncsc34)cc2)cs1
Result: 200 to 1000 nM

Task: Indicate its recorded EC50; the molecule in question is C#Cc1nc(NC(=O)N[C@@H](COC(N)=O)c2ccc(-c3cccc4ccncc34)cc2)cs1
Result: ≤ 200 nM

Task: Indicate its recorded EC50; the molecule in question is C#Cc1nc(NC(=O)N[C@H](c2ccc(-c3cccc4ncsc34)cc2)C(C)(C)O)cs1
Result: ≤ 200 nM

Task: Indicate its recorded EC50; the molecule in question is C#Cc1nc(NC(=O)N[C@@H](CO)c2ccc(-c3c(F)cccc3C3(C#N)CC3)cn2)cs1
Result: ≤ 200 nM

Task: Indicate its recorded EC50; the molecule in question is C#Cc1nc(NC(=O)N[C@@H](CO)c2ccc(-c3c(C#N)ccc4cccnc34)cc2)cs1
Result: ≤ 200 nM

Task: Indicate its recorded EC50; the molecule in question is C#Cc1nc(NC(=O)NC(C(N)=O)c2ccc(-c3cccc4ncsc34)cc2)cs1 (stereo not shown)
Result: ≤ 200 nM

Task: Indicate its recorded EC50; the molecule in question is C#Cc1ncc(NC(=O)N[C@@H](CO)c2ccc(-c3cccc4ncsc34)cc2)s1
Result: 200 to 1000 nM

Task: Indicate its recorded EC50; the molecule in question is C#Cc1nc(NC(=O)NCC2CCC(c3cccc(C4(C#N)CC4)c3)CC2)cs1 (stereo not shown)
Result: ≤ 200 nM

Task: Indicate its recorded EC50; the molecule in question is C#Cc1nc(NC(=O)N2CCN(c3ccc(-c4c(C#N)ccc5nc(N)sc45)cc3)CC2)cs1
Result: ≤ 200 nM

Task: Indicate its recorded EC50; the molecule in question is C#Cc1nc(NC(=O)N[C@@H](CS(N)(=O)=O)c2ccc(-c3cccc4ncsc34)cc2)cs1
Result: ≤ 200 nM

Task: Indicate its recorded EC50; the molecule in question is C#Cc1nnc(NC(=O)N(C)[C@@H](COC(N)=O)c2ccc(-c3cccc(N4CCCC4)n3)cc2)s1
Result: ≤ 200 nM

Task: Indicate its recorded EC50; the molecule in question is C#Cc1nc(NC(=O)N[C@@H](CO)C(=O)N2CCC3(CC2)CCC(F)(F)CC3)cs1
Result: ≤ 200 nM

Task: Indicate its recorded EC50; the molecule in question is C#Cc1nc(NC(=O)N[C@@H](CO)c2ccc(-c3cccnc3C3(C#N)CC3)c(Cl)c2)cs1
Result: ≤ 200 nM

Task: Indicate its recorded EC50; the molecule in question is C#Cc1nc(NC(=O)N[C@@H](COC(=O)C(C)(C)C)c2ccc(-c3cccc4ncsc34)cc2)cs1
Result: ≤ 200 nM
